The molecules listed here are annotated with their growth.
# Test system: MDA-MB-231 breast
# protocolSummary: NCI-60 one-dose screen, 48 h (100 = growth as untreated, 0 = no growth, -100 = all killed)
# testParameters: 10 µM
This is part of a sample that, as a whole, favours compounds with a hit. Of some 83,000 tested, about 20% had one in any assay.
// note: answer is a bare numeric in %

molecule | targetOfAssay | quantityKind | measuredValue
C=CCNc1nnc(C)s1 | MDA-MB-231 breast | growth | 102

Task item: Recorded growth of `Cc1ccc(O)c(C(=O)c2ccccc2)c1` , please.
Reply: 90.6

Task item: Reported growth for O=P(O)(O)OCC(O)CO (configuration not stated) : what is it?
Reply: 111

Task item: Consider the molecule shown here: CC1(C(=O)O)NC(C(=O)O)Cc2c1[nH]c1ccccc21 (configuration not stated) What is its recorded growth?
Reply: 104

Task item: Fill blank: measured growth of the molecule `O=[N+]([O-])c1ccc(-c2ncc(-c3ccc(Br)cc3)o2)cc1` is ____.
Reply: 119

Task item: Please give the measured growth for this molecule: `COc1cc2nn(-c3ccccc3N)nc2cc1OC`
Reply: 116

Task item: Entry `O=C(N/N=C/c1ccccc1O)Nc1nn[nH]n1` : reported growth = ?
Reply: 102

###

# System: TK-10 renal
# protocolSummary: NCI-60 one-dose screen, 48 h (100 = growth as untreated, 0 = no growth, -100 = all killed)
# testParameters: 10 µM unless noted
Compounds without any hit were thinned out: in the full panel of roughly 83,000, 20% have a hit.
quantityKind: growth (%)
Field: numeric (%). Do not append units.

The examples below pair each entry with its known result.
compound | measuredValue
COc1ncnc2c1cnn2C | 108
Cc1ccc(N)cc1[N+](=O)[O-] | 107
O=C(O)CCCC(=O)O | 120

Task item: Record request: growth value, item `NCCC(=O)c1ccc(Cl)cc1`
Reply: 102

Task item: Given `O=[N+]([O-])c1ccc(O)c(S(=O)(=O)O)c1` , state its recorded growth.
Reply: 121

Task item: Quick check: growth of `CCOC(=O)C(CCC(C)C)C(=O)OCC` ?
Reply: 86.8

Task item: Dear colleague, I am looking for the recorded growth of the following compound: `COC(=O)c1cccc(Br)c1`
Reply: 106

Task item: I'd like to know its growth. The compound in question is C#C[C@H]1CCCCCC1O (some centres not stated)
Reply: 109

Task item: Item `O=C(N/N=C\c1cc(Br)cc(Br)c1O)N/N=C/c1cc(Br)cc(Br)c1O` has what recorded growth?
Reply: 65.5

Task item: # growth lookup, item `COc1cc2cc(c1Cl)N(C)C(=O)C[C@H](OC(=O)[C@H](C)N(C)C(C)=O)[C@]1(C)O[C@H]1[C@H](C)[C@@H]1C[C@@](O)(NC(=O)O1)[C@H](OC)C=C/C=C(\C)C2`
Reply: 26.5

Task item: For the compound shown here, `c1ccc2c(N3CCCCC3)ncnc2c1` , give the reported growth.
Reply: 90.9

Task item: Reported growth for `COCCCC/C(=N\OCCN)c1ccc(C(F)(F)F)cc1` : what is it?
Reply: 98.9

###

# System: OVCAR-3 ovarian
# protocolSummary: NCI-60 one-dose screen, 48 h (100 = growth as untreated, 0 = no growth, -100 = all killed)
# testParameters: 10 µM
This is part of a sample that, as a whole, favours compounds with a hit. Of some 83,000 tested, about 20% had one in any assay. Activity calls are given as the source filed them. Rule for the calls: active = growth percent below 10; inactive = the rest.
quantityKind: growth

molecule | targetOfAssay | measuredValue
CC1CCCC(CC(N)=O)CC1 (configuration not stated) | OVCAR-3 ovarian | 102% (inactive)
COc1ccc(C)cc1OC | OVCAR-3 ovarian | 102% (inactive)
CC(=O)OC1CC2C(C)(C)OC3CC(=O)OCC32C2CCC3(C)C(=CCC3c3ccoc3)C12C (configuration not stated) | OVCAR-3 ovarian | 93.8% (inactive)

Task item: I'd like to know its growth. The molecule in question is `Cc1ccc(O)c(C(=O)c2ccccc2)c1`
Reply: 104% (inactive)

Task item: For the molecule `CC(=O)OCCO` , what growth is on record?
Reply: 110% (inactive)

###

growth: recorded values
# System: NCI-H226 lung
# protocolSummary: NCI-60 one-dose screen, 48 h (100 = growth as untreated, 0 = no growth, -100 = all killed)
# testParameters: 10 µM
This is part of a sample that, as a whole, favours compounds with a hit. Of some 83,000 tested, about 20% had one in any assay.
Dear colleague, please return just the value in %, with no unit written.

Illustrative cases are given below, each with its answer.
molecule | measuredValue
N#CCCc1ccc(O)cc1 | 102
Cc1cc2ccccc2c(O)c1C#N | 102
CCCCC1C(=O)N(c2ccccc2)N(c2ccccc2)C1=O | 95.8
Nc1ncnc2[nH]ncc12 | 34.8

Task item: Name the recorded growth for `O=C1N(C[P+](c2ccccc2)(c2ccccc2)c2ccccc2)CCCN1C[P+](c1ccccc1)(c1ccccc1)c1ccccc1` .
Reply: 102

Task item: Please look up its growth: `O=c1cc2oc3cc(O)c(O)cc3c(-c3ccccc3O)c-2cc1O`
Reply: 87

Task item: Look up growth: `COc1ncnc2c1cnn2C`
Reply: 106

###

# System: SF-295 CNS
# protocolSummary: NCI-60 one-dose screen, 48 h (100 = growth as untreated, 0 = no growth, -100 = all killed)
# testParameters: 10 µM
The panel holds about 83,000 compounds, 20% with a hit somewhere; the sample as a whole holds those more often.
Form field: growth (one value per entry).
Write it as a number; the unit % goes unstated.

Task item: Data request, read-out growth, for `O=[N+]([O-])c1ccccc1N=Nc1ccc(O)cc1O`
Reply: 107

Task item: Param item = CC12CC3CC1C(C(=O)O2)C3C(=O)O (configuration not stated) ; retrieve measured growth.
Reply: 101

Task item: Give the measured growth of `COc1ccc(-c2cc3c(nn2)-c2ccccc2C3=O)cc1` .
Reply: -40.7

Task item: What value of measured growth is listed for `CSc1[nH]c(=O)ncc1F` ?
Reply: 97.4

Task item: Need growth of `CC(=O)CC(=O)N(C)C` , thanks.
Reply: 95.8

Task item: What does the record list as growth for CC(C(=O)O)(C1CCCCC1)C1(O)CCCCC1 (configuration not stated) ?
Reply: 82.9

Task item: Bench note: what growth did `COc1ccc(OC)c(/C=C2\CCc3ccccc3C2=O)c1` show?
Reply: 32

###

Measured growth of individual entries
# Tested on: OVCAR-5 ovarian
# protocolSummary: NCI-60 one-dose screen, 48 h (100 = growth as untreated, 0 = no growth, -100 = all killed)
# testParameters: 10 µM
The panel holds about 83,000 compounds, 20% with a hit somewhere; the sample as a whole holds those more often. Active and inactive are the calls of the source. How the source made its calls: active means growth percent below 10; inactive means the rest.

These recorded examples may help you get a feel for the data.
molecule | measuredValue
CN(C)c1ccc(S(=O)(=O)O)cc1 | 93% (inactive)
O=C(O)/C=C/C(=O)NCc1ccccc1 | 107% (inactive)

Task item: Enter reported growth observed with OVCAR-5 ovarian for `C/C(O)=C(\C=N\C(N)=S)C(=O)Nc1ccccc1`
Reply: 113% (inactive)

Task item: Quick check: growth on OVCAR-5 ovarian, item `O=C(Nc1ccccc1)OCCc1ccccc1` ?
Reply: 92.7% (inactive)

Task item: Tell me reported growth for `Brc1cnc2ccccc2c1` , tested with OVCAR-5 ovarian.
Reply: 96.3% (inactive)

Task item: Give growth (OVCAR-5 ovarian) of the following molecule: `COc1cccc(O)c1O`
Reply: 101% (inactive)

Task item: Which measured growth belongs to `O=C(O)CCCc1ccccc1` , tested on OVCAR-5 ovarian?
Reply: 104% (inactive)

###

# System: SF-268 CNS
# protocolSummary: NCI-60 one-dose screen, 48 h (100 = growth as untreated, 0 = no growth, -100 = all killed)
# testParameters: 10 µM
This is part of a sample that, as a whole, favours compounds with a hit. Of some 83,000 tested, about 20% had one in any assay.
Below: a set of entries, each annotated with reported growth.
Form entry: value (%) — number only.

Recorded growth, per entry:
compound | growth [%]
CCCCCCCCCCCCCCCCC1CC(=O)OC1=O (configuration not stated) | 113
C=CCOC(=O)C(=O)OCC=C | 103
CCOC(=O)c1ccc(Nc2sc(C(=O)c3cccc([N+](=O)[O-])c3)c(N)c2C#N)cc1 | 44.4
C#CC(C)(O)c1ccc(Cl)cc1 (configuration not stated) | 103
Cc1ncc(C#N)c(N)n1 | 107
S=c1nn[nH]c2ccccc12 | 110
S=C1NCc2cncnc2N1 | 107
CC(=O)OC(C(=O)O)c1ccccc1 (configuration not stated) | 101
O=[N+]([O-])c1ccc(O)c(S(=O)(=O)O)c1 | 114
CCCCCCCCCCC1CO1 (configuration not stated) | 106

Task item: Record CCOC(=O)C1=C(C)NC(=O)NC1c1cccs1 (configuration not stated) : what is its growth with SF-268 CNS?
Reply: 108

Task item: State its growth on SF-268 CNS: `O=C(O)c1cccc([N+](=O)[O-])c1`
Reply: 100

Task item: Please provide the recorded growth for `COc1cc([C@@H]2c3cc4c(cc3[C@H](O)[C@H]3COC(=O)[C@H]23)OCO4)cc(OC)c1OC` , tested on SF-268 CNS.
Reply: 27.3

Task item: Requested read-out growth, target or system SF-268 CNS, entry `CC(=O)c1cc2c(cc1F)C(C)(C)CCC2(C)C`
Reply: 95.4

Task item: Lab request: please report growth under test system SF-268 CNS for `NC(=S)CN1CCOCC1`
Reply: 102

Task item: Request: growth, test system SF-268 CNS, entry `CC(C)COC(=O)COC(=O)OCCOCCOC(=O)OCC(=O)OCC(C)C`
Reply: 93.5

Task item: Notebook entry, SF-268 CNS assay: growth of CSC[C@H](NC(=O)COc1cccc2cnccc12)C(=O)NC(Cc1ccccc1)C(O)C(=O)N1CSC[C@H]1C(=O)NC(C)(C)C (some centres not stated) = ?
Reply: 94.4
